Every entry's value here was drawn from ChEMBL document CHEMBL1146214.

- Test system: A549
- Assay procedure: Inhibition of induction of ICAM1 expression in human A549 cells in presence of IL1-alpha after 1 hr
- Format: functional, cell-based
- Measurement context: A549, 1 h
Measurement label: pIC50
Reminder that pIC50 means the negative base-10 logarithm of the concentration expressed in mol/L.

Record CO[C@@H]1C[C@H](O[C@H]2CC[C@@]3(C)[C@H](CC[C@@]45O[C@@]46C[C@H]4O[C@@]4(C4=CC(=O)OC4)[C@@]6(C)CC[C@H]35)C2)O[C@H](C)[C@@H]1O . Reported pIC50: 4.21

get_value(item= CO[C@@H]1C[C@H](O[C@H]2CC[C@@]3(C)[C@H](CC[C@@]45O[C@@]46CC=C(C4=CC(=O)OC4)[C@@]6(C)CC[C@H]35)C2)O[C@H](C)[C@@H]1O , readout=pIC50) returns 3.88

Reported pIC50 of CO[C@H]1C[C@H](O[C@H]2CC[C@@]3(C)[C@H](CC[C@@H]4[C@@H]3CC[C@]3(C)[C@@H](C5=CC(=O)OC5)[C@@H](OC(C)=O)C[C@]43O)C2)O[C@H](C)[C@@H]1O : 6.24

Item: C[C@]12CC[C@H](O)C[C@H]1CC[C@@H]1[C@@H]2CC[C@]2(C)[C@@H](C3=CC(=O)OC3)CC[C@]12O | pIC50: 6.21

---

- System: A549
- Assay procedure: Inhibition of induction of ICAM1 expression in human A549 cells in presence of TNFalpha after 1 hr
- Assay type: functional, cell-based
- Measurement context: A549, 1 h
Hi there, I'd appreciate the recorded pIC50 for every entry that follows.
Answer as the number alone; pIC50 is minus log10 of concentration in mol/L.

For reference, reported pIC50 for CO[C@@H]1C[C@H](O[C@H]2CC[C@@]3(C)[C@H](CC[C@@H]4[C@@H]3CC[C@]3(C)[C@@H](C5=CC(=O)OC5)CC[C@]43O)C2)O[C@H](C)[C@@H]1O stands at 6.32

For CO[C@@H]1C[C@H](O[C@H]2CC[C@@]3(C)[C@@H](CC[C@@H]4[C@@H]3CC[C@]3(C)[C@@H](C5=CC(=O)OC5)[C@@H](OC(C)=O)C[C@]43O)C2)O[C@H](C)[C@@H]1O the compound record lists pIC50 as 4.77

For this compound ( CO[C@@H]1C[C@H](O[C@H]2CC[C@@]3(C)[C@H](CC[C@@H]4[C@@H]3CC[C@]3(C)[C@@H](C5=CC(=O)OC5)[C@@H](OC(C)=O)C[C@]43O)C2)O[C@H](C)[C@@H]1O ), measured pIC50 is 6.51

---

For each record, write down the corresponding pIC50.
- Test system: A549
- Assay procedure: Inhibition of induction of ICAM1 expression in human A549 cells in presence of TNFalpha after 1 hr
- Type: functional, cell-based
- Measurement context: A549, 1 h
Just so you know, pIC50 here is -log10 of the concentration in molar units; reply with that number alone.

Recorded pIC50 (molecule CO[C@H]1C[C@H](O[C@H]2CC[C@@]3(C)[C@H](CC[C@@H]4[C@@H]3CC[C@]3(C)[C@@H](C5=CC(=O)OC5)CC[C@]43O)C2)O[C@H](C)[C@@H]1O ): 6.80

Query CO[C@@H]1C[C@H](O[C@H]2CC[C@@]3(C)[C@H](CC[C@]4(O)[C@@H]3CC[C@]3(C)[C@@H](C5=CC(=O)OC5)CC[C@@]34O)C2)O[C@H](C)[C@@H]1O yields pIC50 of 5.23

Sample CO[C@@H]1C[C@H](O[C@H]2CC[C@@]3(C)[C@H](CC[C@@]45O[C@@]46C[C@H]4O[C@@]4(C4=CC(=O)OC4)[C@@]6(C)CC[C@H]35)C2)O[C@H](C)[C@@H]1O ; pIC50 observed: 4.34

Noted for CO[C@H]1C[C@H](O[C@H]2CC[C@@]3(C)[C@H](CC[C@@]45O[C@@]46CC=C(C4=CC(=O)OC4)[C@@]6(C)CC[C@H]35)C2)O[C@H](C)[C@@H]1O : its pIC50 reads 4.26

The reported value for CC(=O)O[C@H]1C[C@]2(O)[C@@H]3CC[C@@H]4C[C@@H](O)CC[C@]4(C)[C@H]3CC[C@]2(C)[C@H]1C1=CC(=O)OC1 in terms of pIC50 is 6.44

---

- Assay procedure: Growth inhibition of human WI38 cells
- Assay type: cell-based
- Measurement context: WI-38
Measurement label: pIC50
Give only the number. pIC50 is defined as minus log10 of concentration in molar units.

Briefly, pIC50 measured for CO[C@@H]1C[C@H](O[C@H]2CC[C@@]3(C)[C@@H](CC[C@@H]4[C@@H]3CC[C@]3(C)[C@@H](C5=CC(=O)OC5)[C@@H](OC(C)=O)C[C@]43O)C2)O[C@H](C)[C@@H]1O : 4.64

Form: compound = CC(=O)O[C@H]1C(=O)[C@@]2(C)[C@H]([C@H](OC(=O)c3ccccc3)[C@]3(O)C[C@H](OC(=O)[C@H](O)[C@@H](NC(=O)c4ccccc4)c4ccccc4)C(C)=C1C3(C)C)[C@]1(OC(C)=O)CO[C@@H]1C[C@@H]2O ; pIC50 = 7.40

Just so you know, measured pIC50 for CO[C@H]1C[C@H](O[C@H]2CC[C@@]3(C)[C@H](CC[C@@H]4[C@@H]3CC[C@]3(C)[C@@H](C5=CC(=O)OC5)[C@@H](OC(C)=O)C[C@]43O)C2)O[C@H](C)[C@@H]1O came out at 7.10

---

- Assay procedure: Growth inhibition of human WI38 cells
- Type: cell-based
- Measurement context: WI-38
pIC50: −log10 of the molar value.
Label rule, in plain words: pIC50 of 5 and up is criterion met, under 5 is criterion not met.

Q: API: above_or_equal(metric=pIC50, cutoff=5) for item CO[C@H]1C[C@H](O[C@H]2CC[C@@]3(C)[C@H](CC[C@@H]4[C@@H]3CC[C@]3(C)[C@@H](C5=CC(=O)OC5)CC[C@]43O)C2)O[C@H](C)[C@@H]1O
A: criterion met

Q: Hi team, for CO[C@@H]1C[C@H](O[C@H]2CC[C@@]3(C)[C@H](CC[C@@]45O[C@@]46C[C@H]4O[C@@]4(C4=CC(=O)OC4)[C@@]6(C)CC[C@H]35)C2)O[C@H](C)[C@@H]1O , is the recorded pIC50 at or above 5?
A: criterion not met

Q: Is pIC50 at least 5? Consider CO[C@@H]1C[C@H](O[C@H]2CC[C@@]3(C)[C@H](CC[C@@H]4[C@@H]3CC[C@]3(C)[C@@H](C5=CC(=O)OC5)[C@@H](OC(C)=O)C[C@]43O)C2)O[C@H](C)[C@@H]1O
A: criterion met

Q: Identify whether the reported pIC50 of the following molecule is 5 or greater: CO[C@@H]1C[C@H](O[C@H]2CC[C@@]3(C)[C@H](CC[C@@]45O[C@@]46CC[C@H](C4=CC(=O)OC4)[C@@]6(C)CC[C@H]35)C2)O[C@H](C)[C@@H]1O
A: criterion not met

Q: Evaluate CO[C@@H]1C[C@H](O[C@H]2CC[C@@]3(C)[C@H](CC[C@@H]4[C@@H]3CC[C@]3(C)[C@@H](C5=CC(=O)OC5)CC[C@]43O)C2)O[C@H](C)[C@@H]1O : pIC50 at minimum 5?
A: criterion met

Q: Entry COc1cccc2c1C(=O)c1c(O)c3c(c(O)c1C2=O)C[C@@](O)(C(=O)CO)C[C@@H]3O[C@H]1C[C@H](N)[C@H](O)[C@H](C)O1 : is its pIC50 no less than 5?
A: criterion met

Q: Could you please find out whether CO[C@H]1C[C@H](O[C@H]2CC[C@@]3(C)[C@H](CC[C@@]45O[C@@]46CC=C(C4=CC(=O)OC4)[C@@]6(C)CC[C@H]35)C2)O[C@H](C)[C@@H]1O has pIC50 that meets 5 or exceeds it?
A: criterion not met

Q: hey, is pIC50 for this one >= 5? CC(=O)O[C@H]1C[C@]2(O)[C@@H]3CC[C@@H]4C[C@@H](O)CC[C@]4(C)[C@H]3CC[C@]2(C)[C@H]1C1=CC(=O)OC1
A: criterion met

---

- System: A549
- Assay procedure: Inhibition of induction of ICAM1 expression in human A549 cells in presence of IL1-alpha after 1 hr
- Type: functional, cell-based
- Measurement context: A549, 1 h
Provide the recorded IC50 for the entries that follow.

Recorded IC50 (compound CO[C@@H]1C[C@H](O[C@H]2CC[C@@]3(C)[C@H](CC[C@@H]4[C@@H]3CC[C@]3(C)[C@@H](C5=CC(=O)OC5)CC[C@]43O)C2)O[C@H](C)[C@@H]1O ): 0.2 µM

CO[C@H]1C[C@H](O[C@H]2CC[C@@]3(C)[C@H](CC[C@@H]4[C@@H]3CC[C@]3(C)[C@@H](C5=CC(=O)OC5)CC[C@]43O)C2)O[C@H](C)[C@@H]1O has a reported IC50 of 0.2 µM

# IC50 of CO[C@@H]1C[C@H](O[C@H]2CC[C@@]3(C)[C@H](CC[C@@H]4[C@@H]3CC[C@]3(C)[C@@H](C5=CC(=O)OC5)[C@@H](OC(C)=O)C[C@]43O)C2)O[C@H](C)[C@@H]1O = 0.51 µM

The compound identified as CO[C@@H]1C[C@H](O[C@H]2CC[C@@]3(C)[C@H](CC[C@@]45O[C@@]46CC[C@H](C4=CC(=O)OC4)[C@@]6(C)CC[C@H]35)C2)O[C@H](C)[C@@H]1O registered its IC50 at 13.9 µM

IC50 recorded for this compound, CC(=O)O[C@H]1C[C@]2(O)[C@@H]3CC[C@@H]4C[C@@H](O)CC[C@]4(C)[C@H]3CC[C@]2(C)[C@H]1C1=CC(=O)OC1 , is 0.52 µM
